// IC50 collected for hMAO-B (Homo sapiens (Human), UniProt P27338)
READOUT: IC50

>>> df
                                   compound                               test_target  readout  measurement
0  CC(O)C(=O)N1CC(C#Cc2ccc3c(=O)c(-c4ccc(NS(C)(=O)=O)cc4)coc3c2)C1 (stereo not drawn)  hMAO-B (Homo sapiens (Human), UniProt P27338)     IC50     > 130 µM
1  COCC#Cc1ccc2c(=O)c(-c3ccc(NS(=O)(=O)C4CC4)cc3)coc2c1  hMAO-B (Homo sapiens (Human), UniProt P27338)     IC50     > 130 µM
2  COCCC(=O)N1CC(C#Cc2ccc3c(=O)c(-c4ccc(NS(C)(=O)=O)cc4)coc3c2)C1  hMAO-B (Homo sapiens (Human), UniProt P27338)     IC50     > 130 µM
3  CS(=O)(=O)Nc1ccc(-c2coc3cc(C#Cc4cncnc4)ccc3c2=O)cc1  hMAO-B (Homo sapiens (Human), UniProt P27338)     IC50       114 µM
4  CS(=O)(=O)Nc1ccc(-c2coc3cc(C#CC4CNC4)ccc3c2=O)cc1  hMAO-B (Homo sapiens (Human), UniProt P27338)     IC50    > 94.4 µM
5  CC(C)(C)OC(=O)N1CC(C#Cc2ccc3c(=O)c(-c4ccc(NS(C)(=O)=O)cc4)coc3c2)C1  hMAO-B (Homo sapiens (Human), UniProt P27338)     IC50     > 130 µM
6  CS(=O)(=O)Nc1ccc(-c2coc3cc(C#CC4CN(C(=O)OC5CCCC5)C4)ccc3c2=O)cc1  hMAO-B (Homo sapiens (Human), UniProt P27338)     IC50     > 130 µM
7  CS(=O)(=O)Nc1ccc(-c2coc3cc(C#Cc4cccnc4)ccc3c2=O)cc1  hMAO-B (Homo sapiens (Human), UniProt P27338)     IC50     > 130 µM
8  CS(=O)(=O)Nc1ccc(-c2coc3cc(C#Cc4ccccc4)ccc3c2=O)cc1  hMAO-B (Homo sapiens (Human), UniProt P27338)     IC50      > 13 µM
